Where these numbers come from: patent US20250333398A1

tested on: wild-type (GRR) human STING cGAMP binding domain (residues 155-341); construct: His-TEV-hSTING (WT); TEV protease cleavage site (N); made in house; host or cells: E. coli BL21 DE3; assay: Differential Scanning Fluorimetry (DSF), stability of STING protein against thermal denaturation; details: 100 uM compound, 3 uM target protein
Strictly below 30 K in DSF ΔTm (K): YES. Otherwise: NO.

Could you please tell me whether DSF ΔTm (K) recorded for CC[P@@](C)(=O)c1ccc(-c2nc(-c3cccc4nn(-c5cn(C6CC6)nc5OC)cc34)c(C3CC3)n2C)c(OC(F)(F)F)c1 is less than 30 K?
YES

Could you please tell me whether DSF ΔTm (K) recorded for CC[P@](C)(=O)c1ccc(-c2nc(-c3cccc4[nH]c(-c5cc(C(F)(F)F)n(C)n5)nc34)c(C3CC3)n2C)c(OC(F)(F)F)c1 is less than 30 K?
NO

Could you please tell me whether DSF ΔTm (K) recorded for CC[P@](C)(=O)c1ccc(-c2nc(-c3cccc4nn(-c5cc(C6CC6)n(C)n5)cc34)c(C3CC3)n2C)c(OC(F)(F)F)c1 is less than 30 K?
YES

Could you please tell me whether DSF ΔTm (K) recorded for COc1nn(C2CC2)cc1-n1cc2c(-c3nn(-c4ccc(P(C)(C)=O)cc4C)c(C)c3C(C)C)cccc2n1 is less than 30 K?
YES

Could you please tell me whether DSF ΔTm (K) recorded for COc1nn(C)cc1-n1cc2c(-c3nc(-c4ccc(C(=O)N(C)C)cc4OC(F)(F)F)n(C)c3C3CC3)cccc2n1 is less than 30 K?
YES

Could you please tell me whether DSF ΔTm (K) recorded for CCP(=O)(CC)c1ccc(-c2nc(-c3cccc4nn(-c5cc(C(F)(F)F)n(C)n5)cc34)c(C3CC3)n2C)c(OC(F)(F)F)c1 is less than 30 K?
YES

Could you please tell me whether DSF ΔTm (K) recorded for Cn1nc(-n2cc3c(-c4nc(-c5ccc(C(N)=O)cc5OC(F)(F)F)n(C)c4C4CC4)cccc3n2)cc1C(F)(F)F is less than 30 K?
NO

Could you please tell me whether DSF ΔTm (K) recorded for COc1nn(CC(C)(C)O)cc1-n1cc2c(-c3nc(-c4ccc(C(N)=O)cc4OC(F)(F)F)n(C)c3C3CC3)cccc2n1 is less than 30 K?
YES

Could you please tell me whether DSF ΔTm (K) recorded for CNC(=O)c1ccc(-c2nc(-c3cccc4nn(-c5cn(C6CC6)nc5OC)cc34)c(C3CC3)n2C)c(OC(F)(F)F)c1 is less than 30 K?
YES
